Kindly state IC50 for each of the entries shown.
# SYSTEM TESTED: SARS-CoV-2 RBD-mouse Fc (Sino Biological) (SARS-CoV-2, UniProt P0DTC2 331-541)
Answers are plain numbers, in µg/mL.

S2X132 (antibody, V domains shown) VH: EVQLVESGGGLVQPGGSLRLSCAASGFTVSSNYMSWVRQAPGKGLEWVSVIYSGGNTYYADSVKGRFTISRDNSKNTLYLQMISLRAEDTAVYYCARDRRLPSIIFGLDVWGQGTTVTVSS VL: QSALTQPASVSGSPGQSITISCTGTSSDVGGNNHVSWYRQHPGKAPKLMIYEVSNRPSGVSNRFSGSKSGNTASLTISGLQAGDEADYYCSSFTTYTTDVVFGGGTKLTVL: 0.0248
S2X129 (antibody, V domains shown) VH: EVQLVQSGAEVKKPGASVKVSCKASGYTFTDYFMHWVRQAPGQGLEWMGWISPNSGGTNYAQRFQGRVTMTRDTSISTTYMELSRLRSDDTAVYYCARDQAYIVLAQGSGMDVWGQGTTVTVSS VL: DIVMTQTPSSVSASVGDRVTITCRASQGISSWLAWYQQKPGKAPKLLISAASSLQSGVPSRFSGSGSGTDFTLTISTLQPEDFATYYCQQANSFPLAFGPGTKVDIK: 0.0214
S2X190 (antibody, V domains shown) VH: EVQLVESGGGVVQPGRSLRLSCAASGFPFSTYGMHWVRQAPGKGLEWVAVIWYDGSTKYYADSVKGRFTISRDNSKNTLYLQMNSLRAEDTALYYCARVHSSGPGDEYFQHWGQGTLLTVSS VL: DIVMTQSPSSLSASVGDRVTITCRASQGISSGLAWYQQKPGKGPKVLIYDASSLESGVPSRFSGSASGTDFTLTISSLQPEDFATYFCQQFYSYPLTFGGGTKVEIK: 0.02

Now for the binder whose IC50 we want.
Could you tell me which IC50 is on file for S2X127 (antibody, V domains shown) VH: EVQLVESGGGLIQPGGSLRLSCAASGLTVRSNYMSWVRQAPGKGLEWVSVMYSGGSTFYADSVKGRSTISRDNSKNTLYLQMNSLRAEDTAVYYCARGDIADDYHYGLDVWGQGTTVTVSS VL: QSVLTQPPSVSGAPGQRVTISCTGSTSNIGAGYNVHWYQHFPGTSPKLLIYGNSNRPSGVPDRFSGSKSGTSASLAITGLQAEDEAAYYCQSYDSNLSGVFGGGTKLTVL ?
0.0102
